# measurement-description: inhibitors of TNFa-induced NFkB p65 translocation, primary screen, imaging, HUVEC, MLSMR starter and 10KST1 sets (AID 438);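 note: compound added about 3h40 before a 20 min TNFalpha stimulation; signal is the nuclear over cytoplasmic p65 intensity ratio per well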
# stated-conditions: HUVEC TNFa-induced p65 nuclear translocation; at 2 µM, active compounds read high, 0% TNFa-plus-vehicle, 100% no-TNFa wells
measured-quantity: inhibition (%)
One number for each entry, in %.

Illustrative cases are given below, each with its answer.
[
  {
    "compound": "O=C(Nc1ccccc1C(=O)N1CCOCC1)c1ccncc1",
    "unit-tag": "%",
    "inhibition": 0.7
  },
  {
    "compound": "CCOC(=O)N1CCN(C(=O)c2ccc3nc4cc(Cl)ccc4c(=O)n3c2)CC1",
    "unit-tag": "%",
    "inhibition": -8.8
  },
  {
    "compound": "Cc1ccc(-n2nc(-c3cccs3)cc2C(=O)NCC2CCCO2)c(C)c1 (configuration not stated)",
    "unit-tag": "%",
    "inhibition": -1.7
  },
  {
    "compound": "COc1ccc(OCCCC(=O)Nc2ccc3c(c2)OCCO3)cc1",
    "unit-tag": "%",
    "inhibition": 10.1
  },
  {
    "compound": "Fc1ccc(-c2nnc(CN3CCN(c4ncc(C(F)(F)F)cc4Cl)CC3)o2)cc1",
    "unit-tag": "%",
    "inhibition": -14.7
  },
  {
    "compound": "CCOC(=O)N1CCN(C(=O)c2cnn(-c3ccccc3)c2NC(=O)c2ccccc2F)CC1",
    "unit-tag": "%",
    "inhibition": 12.1
  },
  {
    "compound": "Cc1ccnc(N2CCN(C(=O)CSc3nc4ccccc4nc3N3CCCCC3)CC2)c1",
    "unit-tag": "%",
    "inhibition": -9.8
  },
  {
    "compound": "CCC1(CC)C(=O)N(C)C(=O)NC1=NCc1ccccc1",
    "unit-tag": "%",
    "inhibition": -4.7
  }
]

Quick one: give me inhibition for each item below, same order please.
1. CC(C)NC(=O)Nc1cccs1
2. CCCC(OC(=O)CN1C(=O)COc2ccccc21)C(=O)NC1CCCC1 (configuration not stated)
3. COCCNC(=O)CCCCCN1C(=O)CCC1=O
4. COc1cc(C(=O)N(C)c2nnc(-c3cccnc3)s2)cc(OC)c1OC
5. C=CCNC(=O)C1CC(=O)N(c2ccc(OCC(=O)Nc3ccc(OC)cc3)cc2)C1 (configuration not stated)
6. N#Cc1nc(COc2ccccc2Cl)oc1N1CCCCCC1
7. CCOC(=O)C1CCN(CC(=O)Nc2c(C(=O)OC)[nH]c3ccc(Cl)cc23)CC1
8. COC(=O)c1[nH]c2cc(OC)ccc2c1NC(=O)CCN1CCCCC1

1. 3
2. 5.5
3. -7.7
4. -5.5
5. 0.7
6. 1.1
7. 4.8
8. 10.8

Hi, could you look up inhibition for each item in my list?
1. Cc1nnc(SCC(=O)NCc2ccc3c(c2)OCO3)s1
2. COc1ccc(NC(=O)N2CCC(c3nc(-c4cccs4)no3)CC2)cc1
3. O=C(NCCN1CCOCC1)c1ccc2c(c1)N(Cc1ccccc1F)C(=O)CS2
4. COC(=O)Cn1cnc2sc(C)c(S(=O)(=O)N3CCC(C)CC3)c2c1=O
5. COCCn1nnnc1C(C(C)C)N(Cc1cccnc1)Cc1ccccc1Cl (configuration not stated)
6. COc1ccc(S(=O)(=O)Cc2ccc(C(=O)N3CCN(Cc4ccccc4)CC3)o2)cc1

1. 3.1
2. -35.7
3. 5.8
4. -2.4
5. 2.1
6. -4.8

Data provenance is PubChem BioAssay.
